Target: T1, human wt-ERα LBD (estrogen receptor alpha ligand-binding domain, amino acids 302-552) (human, UniProt P03372 302-552)
T1 sequence (looked up): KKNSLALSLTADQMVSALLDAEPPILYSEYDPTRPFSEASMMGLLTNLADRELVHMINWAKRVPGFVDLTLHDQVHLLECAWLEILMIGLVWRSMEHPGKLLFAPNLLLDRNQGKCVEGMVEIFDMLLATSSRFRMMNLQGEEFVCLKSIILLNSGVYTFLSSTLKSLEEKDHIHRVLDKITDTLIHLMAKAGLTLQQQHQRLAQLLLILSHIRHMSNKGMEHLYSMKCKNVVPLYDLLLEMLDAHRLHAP
Experiment: fluorescence polarisation; fluorescence anisotropy; 4 nM fluorescein-SRC-1 NR2 peptide, LBD diluted 2-fold from 10 uM (ERα) or 20 uM (ERβ); with E2 at 20 uM (ERα) or 40 uM (ERβ); 20 mM Tris pH 8.0, 150 mM NaCl, 5 mM DTT, 10% glycerol
Details: both partners purified
Where no end group is shown, it is not given here. fluorescein = fluorescein label on the N-terminus of the peptide
QUANTITY: Kd (nM)
Note: unit nM is implicit; provide only the numeric part.

Supply recorded Kd for fluorescein-RHKILHRLLQEGS (also called SRC-1 NR2 peptide; fluorescein-labeled SRC-1 NR2 peptide; source: bought: EZbiolab) [fluorescein-RHKILHRLLQEGS peptide corresponding to the NR box 2-binding motif of SRC-1] here.
110
